# Test system: A549
# ASSAY_DETAILS: Antiproliferative activity against human A549 cells expressing EGFR assessed as cell growth inhibition measured after 48 hrs by MTT assay
# Type: functional, cell-based
# CONDITION_CONTEXT: A549, 48 h
RECORDED_ENDPOINT: IC50 (µM)

Completed entries (count: 2):
MOLECULE | IC50 [µM]
O=C(Nc1ccc(Nc2ccc([N+](=O)[O-])c3ncnc(O)c23)cc1)c1ccccc1F | 85.8
O=C(Nc1ccc(Nc2ccc([N+](=O)[O-])c3ncnc(O)c23)cc1)c1ccccc1Cl | 90.3

[P] Cc1ccc(C(=O)Nc2ccc(CN3CCN(C)CC3)c(C(F)(F)F)c2)cc1C#Cc1cnc2cccnn12
[Q] O=C(Nc1ccc(Nc2ccc([N+](=O)[O-])c3ncnc(O)c23)cc1)c1cccc(F)c1
[R] CNC(=O)c1cc(Oc2ccc(NC(=O)Nc3ccc(Cl)c(C(F)(F)F)c3)cc2)ccn1
Order these by IC50, descending, and give the full ranking. Lab note: final answer is the ordered label list.
Q, R, P
